- SYSTEM: GDP-bound KRAS protein (aa 1-169), containing both G12C and C118A amino acid substitutions (Homo sapiens, UniProt P01116, C118A/G12C)
- Sequence (P01116 1-169 isoform P01116-2 G12C/C118A): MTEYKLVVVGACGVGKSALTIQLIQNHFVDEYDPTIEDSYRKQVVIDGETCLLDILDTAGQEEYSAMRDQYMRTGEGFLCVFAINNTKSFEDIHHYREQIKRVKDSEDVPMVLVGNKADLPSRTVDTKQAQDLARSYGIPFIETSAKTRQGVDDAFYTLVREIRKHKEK
- PROTOCOL: Coupled Nucleotide Exchange Assay
- Format: biochemical
- PROTOCOL CONDITIONS: 5 min compound pre-incubation; SOS-mediated nucleotide exchange, AlphaScreen
The entries below come with measured Coupled exchange IC50 (5 min; μM) values attached.
Give the value, in units of µM, as a plain number.

{"COMPOUND": "C=CC(=O)N1[C@H](C)CN(c2c(C#N)c(=O)n(-c3c(C)ccnc3C(C)C)c3nc(-c4ccccc4F)c(Cl)cc23)C[C@@H]1C (single isomer, unassigned) [Example 7.7]", "Coupled exchange IC50 (5 min; μM) / µM": 0.18}
{"COMPOUND": "C=CC(=O)N1CCN(c2c(C#N)c(=O)n(-c3c(C)ccnc3C(C)C)c3nc(-c4ccccc4F)c(Cl)cc23)CC1 [Example 6.4]", "Coupled exchange IC50 (5 min; μM) / µM": 0.73}
{"COMPOUND": "C=CC(=O)N1CCN(c2c(C#N)c(=O)n(-c3c(C)ccnc3C(C)C)c3nc(Cl)c(Cl)cc23)CC1 [Example 9.2]", "Coupled exchange IC50 (5 min; μM) / µM": 36}
{"COMPOUND": "C=CC(=O)N1CCN(c2c(C#N)c(=O)n(-c3c(C)ccnc3C(C)C)c3nc(-c4ccccc4C)c(Cl)cc23)CC1 (single isomer, unassigned) [Example 11]", "Coupled exchange IC50 (5 min; μM) / µM": 0.71}
{"COMPOUND": "C=CC(=O)N1CCN(c2c(C#N)c(=O)n(-c3c(C(C)C)ccnc3C(C)C)c3nc(-c4ccccc4F)c(F)cc23)CC1 [Example 10.1]", "Coupled exchange IC50 (5 min; μM) / µM": 0.65}

With those in mind, consider the next compound.
// field: Coupled exchange IC50 (5 min; μM); key: C=CC(=O)N1CCN(c2c(C#N)c(=O)n(-c3c(C(C)C)ccnc3C(C)C)c3nc(-c4ccccc4F)c(Cl)cc23)CC1 (racemic) [Example 8] ; value = 0.06
